- SUBJECT_OF_TEST: UniProt P09917
- Sequence (P09917 whole entry): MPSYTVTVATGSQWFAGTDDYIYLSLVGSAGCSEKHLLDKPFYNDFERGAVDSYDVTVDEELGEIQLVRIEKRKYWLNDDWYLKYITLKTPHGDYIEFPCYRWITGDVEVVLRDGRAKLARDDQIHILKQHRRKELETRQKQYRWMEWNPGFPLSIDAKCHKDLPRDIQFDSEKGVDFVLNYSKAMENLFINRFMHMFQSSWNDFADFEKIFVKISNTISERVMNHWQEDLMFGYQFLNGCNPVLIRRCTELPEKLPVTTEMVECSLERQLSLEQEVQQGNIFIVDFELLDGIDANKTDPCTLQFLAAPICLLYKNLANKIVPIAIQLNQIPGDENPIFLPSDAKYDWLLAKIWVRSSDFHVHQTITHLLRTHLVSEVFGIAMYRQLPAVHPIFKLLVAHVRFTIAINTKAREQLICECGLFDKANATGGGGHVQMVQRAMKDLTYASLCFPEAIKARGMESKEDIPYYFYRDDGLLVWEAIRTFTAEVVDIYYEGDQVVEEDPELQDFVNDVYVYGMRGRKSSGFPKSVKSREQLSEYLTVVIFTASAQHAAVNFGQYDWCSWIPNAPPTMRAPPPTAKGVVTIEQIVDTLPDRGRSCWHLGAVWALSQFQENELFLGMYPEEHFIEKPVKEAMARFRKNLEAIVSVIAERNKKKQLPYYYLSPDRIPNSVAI
- ASSAY_SUMMARY: Inhibition of 5-LO in human PMNL S100 extract using arachidonic acid as substrate incubated for 15 mins prior to substrate addition measured after 10 mins by HPLC analysis
pIC50 listing for selected compounds.
Reminder that pIC50 means the negative base-10 logarithm of the concentration expressed in mol/L.

In the examples that follow, each entry is paired with its recorded pIC50.
Cc1ccc(C2=NC(=O)/C(=C/c3cccs3)S2)cc1
6.07
Cc1ccc(C2=NC(=O)/C(=C/c3ccc(OCC(=O)N4CCOCC4)cc3)S2)cc1
6.14
COc1ccc(/C=C2\SC(c3cccnc3)=NC2=O)cc1
6.02
Cc1ccc(C2=NC(=O)/C(=C/c3ccc(C(=O)O)cc3)S2)cc1
5.84

Then there is this compound:
Task item: Give pIC50 for the following compound: Cc1ccc(C2=NC(=O)/C(=C/c3ccc(N4CCOCC4)cc3)S2)cc1
Reply: 5.97
